# TARGET OR TEST SYSTEM: His6-AspH315–758 (human aspartate/asparagine-β-hydroxylase, AspH) (Homo sapiens)
# Construct: N-Terminally His6-tagged human AspH315–758 (His6-AspH315–758) was produced in E. coli BL21 (DE3) cells; made in house; host or cells: E. coli BL21 (DE3), pET-28a(+) vector
# Sequence (Q12797 315-758): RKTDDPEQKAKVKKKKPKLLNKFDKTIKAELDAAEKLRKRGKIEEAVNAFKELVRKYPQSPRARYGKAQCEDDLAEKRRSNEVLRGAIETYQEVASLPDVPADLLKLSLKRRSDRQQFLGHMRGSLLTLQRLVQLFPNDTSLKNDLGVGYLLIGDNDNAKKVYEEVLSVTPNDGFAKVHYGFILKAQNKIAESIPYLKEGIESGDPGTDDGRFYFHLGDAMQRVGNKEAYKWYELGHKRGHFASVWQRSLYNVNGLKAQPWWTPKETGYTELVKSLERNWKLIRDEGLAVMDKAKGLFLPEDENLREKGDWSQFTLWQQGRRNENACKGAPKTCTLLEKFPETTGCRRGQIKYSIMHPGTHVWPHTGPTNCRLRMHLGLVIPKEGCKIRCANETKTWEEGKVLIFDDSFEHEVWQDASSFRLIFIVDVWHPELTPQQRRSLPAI
# METHOD DESCRIPTION: SPE-MS AspH inhibition assay (LOPAC screen at fixed 20 μM and IC50 dose-response), hydroxylation of cyclic peptide hFX-CP101–119
# Format: biochemical
# CONDITIONS: LOPAC Plate 4, compound at 20 uM, substrate conversion
Structures can show the parent of a compound that is named as a salt.
Give % conversion for every item shown.
// note: answer is a bare numeric in %

So what does the record say about % conversion for CC(=O)c1ccc2c(c1)N(CCCN(C)C)c1ccccc1S2 [Acepromazine maleate] ?
29.56

Ok, now N#CC(C#N)=C(N)/C(C#N)=C/c1cc(O)c(O)c(O)c1 [Tyrphostin 51, reference compound]
2.15

And for CC1=C(CC(=O)O)c2cc(F)ccc2/C1=C\c1ccc(S(C)(=O)=O)cc1 ?
33.98

Thanks! And O=c1ccn([C@@H]2O[C@H](COP(=O)([O-])OP(=O)([O-])O)[C@@H](O)[C@H]2O)c(=O)[nH]1.[Na+].[Na+] [Uridine 5-diphosphate sodium] ?
36.55

Consider next the molecule Cc1scc2c1N(C(=O)CN1CCN(C)CC1)c1ccccc1NC2=O [Telenzepine dihydrochloride] in the same way.
38.43

Note, next up: COc1ccc(OCC2c3cc(OC)c(OC)cc3CCN2C(=O)c2cccc(Cl)c2)cc1 (centres unmarked)
36.09

Similarly, C[C@@H]1C(=O)NC2=Nc3cccc(Cl)c3CN21 ?
40.20

What do you have for CCCN(CCC)C1Cc2cc(OC)c(OC)cc2C1.O=C(O)/C=C\C(=O)O [U-99194A maleate] ?
34.90

What do you have for CCCCNC(=O)NS(=O)(=O)c1ccc(C)cc1 [Tolbutamide] ?
37.22

Also O=C(Nc1ccccc1C(=O)NC1CCCCNC1=O)c1cc2ccccc2s1 (centres unmarked) , if possible.
32.70

Now consider CCCCNc1ccc(C(=O)OCCN(C)C)cc1 [Tetracaine hydrochloride] .
40.45

Do the same for Cn1cnc2c1c(=O)[nH]c(=O)n2C please
26.15

Entry to check: CCN(CC)CCNC(=O)c1ccc(N)cc1 [Procainamide hydrochloride]
38.98

Please do the same for C=CCNc1ncnc2ccc(Br)cc12 as well.
30.76

Can you check COc1ccc(/C=C/C(=O)Nc2ccccc2C(=O)O)cc1OC next?
35.26

How about NC(=S)c1ccc[n+]([C@@H]2O[C@@H](COP(=O)([O-])OP(=O)(O)OC[C@H]3O[C@@H](n4cnc5c(N)ncnc54)C(OP(=O)([O-])O)[C@H]3O)C(O)C2O)c1.[Na+] (some centres unmarked) [Thio-NADP sodium] ?
24.90

// next record Br.Cc1cccc(C2CN(C)CCc3c2cc(O)c(O)c3Cl)c1 (centres unmarked) [SKF 83959 hydrobromide, reference compound]
4.00

Origin of values: paper PMC7251097
